// data source = BigSolDB 2.1

Conditions: in DMF, 293.15 K
Where a SMILES comes first, the peptide text is derived from it. [ ]: non-standard residue; d: D form. pGlu = O=C1CC[C@@H](C(=O)O)N1; Thz = O=C(O)[C@@H]1CSCN1
PROPERTY LABEL: solubility (mole fraction)
Give bare numbers.

Ask: Query solubility (mole fraction) for O=C1CC[C@@H](C(=O)N2CSC[C@H]2C(=O)O)N1 ([pGlu]-[Thz]-OH)
Result: 0.00953

----------
Settings: in water, 318.15 K
Where a SMILES comes first, the peptide text is derived from it. [ ]: non-standard residue; d: D form. pGlu = O=C1CC[C@@H](C(=O)O)N1; Thz = O=C(O)[C@@H]1CSCN1
PROPERTY LABEL: solubility (mole fraction)

Ask: Specify measured solubility (mole fraction) for O=C1CC[C@@H](C(=O)N2CSC[C@H]2C(=O)O)N1 ([pGlu]-[Thz]-OH) .
Result: 0.00509

----------
Conditions: in isopropanol, 278.15 K
Where a SMILES comes first, the peptide text is derived from it. [ ]: non-standard residue; d: D form. pGlu = O=C1CC[C@@H](C(=O)O)N1; Thz = O=C(O)[C@@H]1CSCN1
PROPERTY LABEL: solubility (mole fraction)

Ask: State its solubility (mole fraction): O=C1CC[C@@H](C(=O)N2CSC[C@H]2C(=O)O)N1 ([pGlu]-[Thz]-OH)
Result: 9.1e-05

----------
Conditions: in n-butanol, 288.15 K
Where a SMILES comes first, the peptide text is derived from it. [ ]: non-standard residue; d: D form. pGlu = O=C1CC[C@@H](C(=O)O)N1; Thz = O=C(O)[C@@H]1CSCN1
PROPERTY LABEL: solubility (mole fraction)

Ask: Look up and state reported solubility (mole fraction) for O=C1CC[C@@H](C(=O)N2CSC[C@H]2C(=O)O)N1 ([pGlu]-[Thz]-OH)
Result: 0.000354

----------
Details: in acetone, 323.15 K
Where a SMILES comes first, the peptide text is derived from it. [ ]: non-standard residue; d: D form. pGlu = O=C1CC[C@@H](C(=O)O)N1; Thz = O=C(O)[C@@H]1CSCN1
PROPERTY LABEL: solubility (mole fraction)

Ask: Retrieve solubility (mole fraction) measured for O=C1CC[C@@H](C(=O)N2CSC[C@H]2C(=O)O)N1 ([pGlu]-[Thz]-OH) and print it.
Result: 0.000925

----------
Conditions: in water, 308.15 K
Where a SMILES comes first, the peptide text is derived from it. [ ]: non-standard residue; d: D form. pGlu = O=C1CC[C@@H](C(=O)O)N1; Thz = O=C(O)[C@@H]1CSCN1
PROPERTY LABEL: solubility (mole fraction)
Give bare numbers.

Ask: Specify measured solubility (mole fraction) for O=C1CC[C@@H](C(=O)N2CSC[C@H]2C(=O)O)N1 ([pGlu]-[Thz]-OH) .
Result: 0.00368

----------
Conditions: in DMF, 278.15 K
Where a SMILES comes first, the peptide text is derived from it. [ ]: non-standard residue; d: D form. pGlu = O=C1CC[C@@H](C(=O)O)N1; Thz = O=C(O)[C@@H]1CSCN1
PROPERTY LABEL: solubility (mole fraction)
Give bare numbers.

Ask: Please report the measured solubility (mole fraction) for O=C1CC[C@@H](C(=O)N2CSC[C@H]2C(=O)O)N1 ([pGlu]-[Thz]-OH)
Result: 0.00535
